Consider the following binders; for each one, report its s/n ratio.
- test target: T1, proprotein convertase subtilisin/kexin type 9 (PCSK9) (human, UniProt Q8NBP7 31-692)
- T1 construct: His-tagged full-length PCSK9 in TR-FRET and SPR, biotinylated in phage ELISA; secreted protein is autoprocessed (prodomain plus catalytic/CRD chain starting at S153); also called rec.PCSK9; His-PCSK9
- T1 sequence (Q8NBP7 other isoform, or with tags, fused parts or gaps limits assumed): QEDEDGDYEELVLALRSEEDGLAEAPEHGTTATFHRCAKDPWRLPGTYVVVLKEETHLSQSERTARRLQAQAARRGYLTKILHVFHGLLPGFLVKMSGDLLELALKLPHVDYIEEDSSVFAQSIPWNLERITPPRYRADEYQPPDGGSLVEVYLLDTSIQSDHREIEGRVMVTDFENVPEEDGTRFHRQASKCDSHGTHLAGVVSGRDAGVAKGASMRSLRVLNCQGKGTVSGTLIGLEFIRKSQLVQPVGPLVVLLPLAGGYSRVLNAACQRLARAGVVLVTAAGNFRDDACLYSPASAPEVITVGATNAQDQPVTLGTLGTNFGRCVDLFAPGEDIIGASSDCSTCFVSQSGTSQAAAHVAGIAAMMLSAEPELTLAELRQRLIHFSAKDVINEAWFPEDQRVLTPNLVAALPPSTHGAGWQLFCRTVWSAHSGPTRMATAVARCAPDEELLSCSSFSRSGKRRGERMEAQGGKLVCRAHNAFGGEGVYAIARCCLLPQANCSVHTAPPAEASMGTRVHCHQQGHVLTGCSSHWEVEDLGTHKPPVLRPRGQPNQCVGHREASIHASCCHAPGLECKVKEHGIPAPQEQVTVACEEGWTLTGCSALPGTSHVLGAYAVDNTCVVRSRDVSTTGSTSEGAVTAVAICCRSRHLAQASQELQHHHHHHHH
- experiment summary: phage spot ELISA
Ends that are not written are not given here.
Numbers only.

Solved cases below.
TAFTSWEEYLDWVGSGGDCYPHCRLV [SEQ ID NO 359]
28.9
TAFTSWEEYLDWVGSGDCLRYRVGSSCS [SEQ ID NO 360]
29.6
TAFTSWEEYLDWVGSGCWTYLRGGCSVT [SEQ ID NO 339]
22.1
TAFTSWEEYLDWVGSGKCDSHYIRGVVACH [SEQ ID NO 356]
30.2
TAFTSWEEYLDWVGSGCYPLCRVL [SEQ ID NO 364]
31.1
TAFTSWEEYLDWVGSGGCGYRYMCDMINGL [SEQ ID NO 358]
32.8

Please supply s/n ratio for each of the following items, keeping them in order.
1. TAFTSWEEYLDWVGSGQVTSLPQA [SEQ ID NO 363]
2. TAFTSWEEYLDWVGSGTRYADRGVMVYSLS [SEQ ID NO 321]
3. TAFTSWEEYLDWVGSGPRTYLRGLVD [SEQ ID NO 340]
4. TAFTSWEEYLDWVGSGQISYLRNA (not fully specified; also: Q (1) D-amino acid, place in chain unclear (phage-displayed)) [SEQ ID NO 342]
5. TAFTSWEEYLDWVGSGCLDRSGGCYTREGYLS [SEQ ID NO 353]
6. TAFTSWEEYLDWVGSGGDCGYHYMCSMT [SEQ ID NO 345]

Given back:
[27.9, 30.3, 25.6, 22.9, 29, 25]

Asked: Need s/n ratio of TAFTSWEEYLDWVGSGSPCRVGYTPC [SEQ ID NO 351] , thanks.
Given back: 27.7
